Target: human sphingosine-1-phosphate receptor 1 (S1P1) (Homo sapiens, UniProt P21453)
Sequence (P21453 whole entry): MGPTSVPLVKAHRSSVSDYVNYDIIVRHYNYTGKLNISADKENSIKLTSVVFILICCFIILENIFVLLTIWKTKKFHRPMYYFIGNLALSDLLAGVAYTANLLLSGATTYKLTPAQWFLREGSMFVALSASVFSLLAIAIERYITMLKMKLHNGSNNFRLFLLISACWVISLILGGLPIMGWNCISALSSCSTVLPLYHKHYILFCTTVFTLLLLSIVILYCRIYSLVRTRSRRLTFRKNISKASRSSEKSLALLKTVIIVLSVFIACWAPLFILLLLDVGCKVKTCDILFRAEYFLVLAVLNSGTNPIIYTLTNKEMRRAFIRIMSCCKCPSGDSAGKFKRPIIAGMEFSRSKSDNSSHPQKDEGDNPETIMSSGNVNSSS
Experiment: Inhibition of cAMP production (HTRF cAMP HiRange), S1P1 CHO-K1 cells
Format: cell-based
Details: inhibition of cAMP production; potency; read-out: hS1P1 CAMP pEC50 (converted)
test.readout: EC50

The cases that follow already have their EC50 on record.
molecule	value
COCC1(COC)CC(=O)c2cc(-c3nc(-c4cccnc4)no3)ccc2O1 [Compound 186]	> 0.316 µM
CCC1(CC)CC(=O)c2cc(-c3nc(-c4ccccn4)no3)ccc2O1 [Compound 111]	> 0.316 µM
COc1ccccc1-c1cnc(-c2ccc3c(c2)nnn3C(C)C)s1 [Compound 184]	> 0.316 µM

Q: Which EC50 value belongs to COc1cccc(F)c1-c1noc(-c2ccc3c(c2)nnn3C(C)C)n1 [Compound 260] ?
Result: > 0.316 µM

Q: Param item = CCC1(CC)CC(=O)c2cc(-c3nc(-c4ccc(NC(C)=O)cc4)no3)ccc2O1 [Compound 209] ; retrieve measured EC50.
Result: < 0.316 µM

Q: If you can, please state the reported EC50 value of Cc1ccccc1-c1noc(-c2ccc3c(c2)nnn3C(C)(C)C)n1 [Compound 59] .
Result: < 0.316 µM

Each recorded value in this set is attributed to patent US20230114241A1.
